Can you tell me surviving fraction for the items I'm about to list?
- Tested on: FT3469 (normal neural stem cell line)
- experiment: surviving fraction (nuclei count normalised to DMSO); higher = more cells surviving (less toxic)
- condition-context: 3000 nM; exposure time: 72 h
Structures can show the parent of a compound that is named as a salt.
API note: the answer field is a bare number with no unit suffix.

QUERY: Could you please provide reported surviving fraction for COc1cc2ncnc(Nc3cccc(Br)c3)c2cc1OC ? Thanks!
RESULT: 1.06

QUERY: Quote surviving fraction reported for CN[C@@H](C)C(=O)N[C@H](C(=O)N1CCC[C@H]1C(=O)N[C@H]1c2ccccc2C[C@H]1OCC#CC#CCO[C@@H]1Cc2ccccc2[C@@H]1NC(=O)[C@@H]1CCCN1C(=O)[C@@H](NC(=O)[C@H](C)NC)C1CCCCC1)C1CCCCC1 please.
RESULT: 0.951

QUERY: Supply recorded surviving fraction for Cc1c2ccncc2c(C)c2c1[nH]c1ccccc12 here.
RESULT: 0.649

QUERY: Respond only with surviving fraction recorded for CN(c1nccc(=O)[nH]1)C1CCN(c2nc3ccccc3n2Cc2ccc(F)cc2)CC1
RESULT: 1.15

QUERY: Identify the reported surviving fraction for the following entry. Nc1ncn(C2OC(CO)C(O)C2O)c(=O)n1 (stereo not drawn)
RESULT: 0.906

QUERY: Query surviving fraction for O=C1c2c(O)ccc(O)c2C(=O)c2c(NCCNCCO)ccc(NCCNCCO)c21
RESULT: 0.362

QUERY: Note down surviving fraction recorded for CCC(C)(C)c1ccc(CC(C)CN2C[C@@H](C)O[C@@H](C)C2)cc1 (stereo partly drawn) [Amorolfine hydrochloride]
RESULT: 1.02

QUERY: Output measured surviving fraction for this item: CCC(C)n1ncn(-c2ccc(N3CCN(c4ccc(OCC5COC(Cn6cncn6)(c6ccc(Cl)cc6Cl)O5)cc4)CC3)cc2)c1=O (stereo not drawn)
RESULT: 0.53

QUERY: Annotate the compound CCC1=C[C@@H]2CN(C1)Cc1c([nH]c3ccccc13)[C@@](C(=O)OC)(c1cc3c(cc1OC)N(C)[C@H]1[C@@](O)(C(=O)OC)[C@H](OC(C)=O)[C@]4(CC)C=CCN5CC[C@]31[C@@H]54)C2 [Vinorelbine Tartrate] with its measured surviving fraction.
RESULT: 0.56

QUERY: Name the recorded surviving fraction of the compound listed here: CC(C)C(=O)OCC(=O)[C@@]12O[C@H](C3CCCCC3)O[C@@H]1C[C@H]1[C@@H]3CCC4=CC(=O)C=C[C@]4(C)[C@H]3[C@@H](O)C[C@@]12C [Ciclesonide]
RESULT: 0.803

QUERY: Provide measured surviving fraction value, entry: COc1cc([C@@H]2c3cc4c(cc3[C@H](O)[C@H]3COC(=O)[C@H]23)OCO4)cc(OC)c1OC
RESULT: 0.379

QUERY: Write down surviving fraction measured for item CCCCCCCCCCCCCC(=O)O[C@@H]1[C@@H](C)[C@@]2(O)[C@@H](C=C(CO)C[C@]3(O)C(=O)C(C)=C[C@@H]23)[C@@H]2C(C)(C)[C@]12OC(C)=O [Phorbol 12-myristate 13-acetate]
RESULT: 0.571

QUERY: Answer with reported surviving fraction of C=C[C@H]1CN2CC[C@H]1C[C@@H]2[C@@H](O)c1ccnc2ccc(OC)cc12 [Quinidine hydrochloride monohydrate]
RESULT: 0.957

QUERY: Given N=C(N)c1ccc(-c2ccc(-c3ccc(C(=N)N)cc3)o2)cc1 [Furamidine dihydrochloride] , respond with its surviving fraction.
RESULT: 1

QUERY: Return reported surviving fraction. Input compound: CC(C)C[C@H](NC(=O)CNC(=O)c1cc(Cl)ccc1Cl)B(O)O
RESULT: 0.103

QUERY: Annotate the compound CC[n+]1c(/C=C/C=C2/N(C)c3ccccc3C2(C)C)sc2ccccc21 with its measured surviving fraction.
RESULT: 0.578

QUERY: Name the recorded surviving fraction of the item CCOC(=O)OC(C)OC1=C(C(=O)Nc2ccccn2)N(C)S(=O)(=O)c2ccccc21 (stereo not drawn) in your answer.
RESULT: 0.95

QUERY: Given COc1cc(/C=C/C(=O)N2CCC=CC2=O)cc(OC)c1OC , respond with its surviving fraction.
RESULT: 0.7

QUERY: Item Cc1nc2ccccn2c(=O)c1CCN1CCC(C(=O)c2ccc(F)cc2)CC1 : provide surviving fraction
RESULT: 1.19

QUERY: Answer with the recorded surviving fraction of COc1cc2nc(N3CCN(C(=O)c4ccco4)CC3)nc(N)c2cc1OC [Prazosin hydrochloride] only.
RESULT: 1.06

QUERY: Identify the reported surviving fraction for the following entry. CC[C@@]1(O)C(=O)OCc2c1cc1n(c2=O)Cc2cc3cc(O)ccc3nc2-1 [Hydroxy Camptothecine]
RESULT: 0.445

QUERY: State, in one line, measured surviving fraction of CCCSc1ccc2[nH]c(NC(=O)OC)nc2c1
RESULT: 0.504

QUERY: Tell us which surviving fraction value is on record for CCN(CC)Cc1ccc(C(=O)N(CCc2ccccc2OC)[C@@H]2CCNC2)cc1
RESULT: 1.18

QUERY: Quick one: give measured surviving fraction for NC1CCN(c2nc3c(cc2F)c(=O)c(C(=O)O)cn3-c2ccc(F)cc2F)C1 (stereo not drawn) [Tosufloxacin hydrochloride]
RESULT: 0.913

QUERY: Please report the measured surviving fraction for CNCCc1ccccn1 [Betahistine mesylate]
RESULT: 1.19

QUERY: Return value of surviving fraction for input Cc1[nH]nc(C(F)(F)F)c1Cc1sc2c(c1C(=O)N1C[C@](C)(O)CO1)c(=O)n(C)c(=O)n2C(C)C , no commentary.
RESULT: 0.899

QUERY: Please give measured surviving fraction of the following entry: Oc1ccc(OCc2ccccc2)cc1
RESULT: 0.689

QUERY: Tell me its surviving fraction given CC1(C(=O)O)C2CCC(O2)C1(C)C(=O)O (stereo not drawn) as the entry.
RESULT: 0.777

====

Consider the following molecules; for each one, report its phenotypic distance.
- Test system: E13 (patient-derived glioblastoma stem cells of classical subtype)
- experiment: phenotypic distance (Euclidean, principal components) from DMSO controls (arbitrary units); higher = stronger morphological change
- condition-context: 37 nM; exposure time: 72 h
Counter-ions that a name gives are not always drawn.
Give your answer as a number; write no unit.

QUERY: Consider the molecule O=C(C1CC1)N1CC[C@@H](Cc2n[nH]c(=O)n2-c2ccc(-c3ccc4occc4c3)cc2)C1 and give its recorded phenotypic distance.
RESULT: 3.95

QUERY: Give phenotypic distance for the following molecule: Cc1ccc2c(c1)C1(CCN(CCc3nc(-c4ccccc4)oc3C)CC1)OC(=O)N2
RESULT: 1.42

QUERY: Report phenotypic distance for N=C(N)c1ccc(-c2ccc(-c3ccc(C(=N)N)cc3)o2)cc1 [Furamidine dihydrochloride]
RESULT: 0.687

====

- System: E21 (patient-derived glioblastoma stem cells of mesenchymal subtype)
- experiment: surviving fraction (nuclei count normalised to DMSO); higher = more cells surviving (less toxic)
- condition-context: 4.1 nM; exposure time: 72 h
Structures can show the parent of a compound that is named as a salt.
Would you mind telling me the reported surviving fraction of each entry?
// keep it numeric: no unit symbol after the value

QUERY: Please report the measured surviving fraction for C#C[C@]1(O)CC[C@H]2[C@@H]3CCc4cc(OC5CCCC5)ccc4[C@H]3CC[C@@]21C
RESULT: 1.01

QUERY: Specify measured surviving fraction for CNc1ccc2oc(C[C@H]3O[C@@]4(CC[C@H]3C)O[C@H]([C@H](C)C(=O)c3ccc[nH]3)[C@H](C)C[C@H]4C)nc2c1C(=O)O .
RESULT: 0.98

QUERY: Specify measured surviving fraction for CC[N+](CC)(CC)CCOc1ccc(/C=C/c2ccccc2)cc1 .
RESULT: 0.978

QUERY: Give recorded surviving fraction. OCCN1CCN(CCCN2c3ccccc3Sc3ccc(Cl)cc32)CC1
RESULT: 0.925

QUERY: Note surviving fraction for the compound shown: N=C(N)NCc1cccc(I)c1 [Iobenguane sulfate]
RESULT: 0.982

QUERY: Kindly indicate its recorded surviving fraction. Item: CN1CCC(NC(=O)c2cc(-c3c(O)cc(O)cc3Oc3ccc([N+](=O)[O-])cc3)on2)CC1
RESULT: 0.891

QUERY: Give me measured surviving fraction, please, for this compound: C[C@@H]1CN([C@H]2CC[C@](C#N)(c3ccc(F)cc3)CC2)CC[C@]1(C(=O)O)c1ccccc1 [Levocabastine hydrochloride]
RESULT: 0.99

QUERY: Please supply the value of reported surviving fraction for the item COc1cc(NS(C)(=O)=O)ccc1Nc1c2ccccc2nc2ccccc12
RESULT: 0.908

====

- Tested on: E13
- experiment: surviving fraction (nuclei count normalised to DMSO); higher = more cells surviving (less toxic)
- condition-context: 333.3 nM; exposure time: 72 h
Counter-ions that a name gives are not always drawn.
readout-name: surviving fraction
Lab note: write the figure by itself, no unit.

QUERY: Item COc1cc(OC)c(C(=O)CCCN2CCCC2)c(OC)c1 [Buflomedil hydrochloride] : provide surviving fraction
RESULT: 1.01

QUERY: Give the measured surviving fraction for C#C[C@]1(O)CC[C@H]2[C@@H]3CCc4cc(OC5CCCC5)ccc4[C@H]3CC[C@@]21C
RESULT: 1.02

QUERY: Please report the measured surviving fraction for CNCCc1ccccn1 [Betahistine mesylate]
RESULT: 0.991
